System: antibodies against HCV
Assay: PEPSCAN analysis of overlapping octameric peptides of the HCV core protein N-terminal region with HCV-seropositive sera
Assay type: binding, human
Conditions: serum 65276; read at 405 nm
Ends that are not written are not given here.
Binary call on Absorbance Units for different sera: fulfilled from 400 Absorbance Units upward, not fulfilled beneath that.

Reference set (5 entries):
recordSequence	classAssignment
YLLPRRGP (pin support) [Tyr-Leu-Leu-Pro-Arg-Arg-Gly-Pro, overlapping octameric peptide of HCV core protein on pin support]	not fulfilled
RRGPRLGV (pin support) [overlapping octameric peptide of HCV core protein on pin support]	not fulfilled
GQIVGGVY (pin support) [overlapping octameric peptide of HCV core protein on pin support]	not fulfilled
QIVGGVYL (pin support) [overlapping octameric peptide of HCV core protein on pin support]	not fulfilled
VYLLPRRG (pin support) [Val-Tyr-Leu-Leu-Pro-Arg-Arg-Gly, overlapping octameric peptide of HCV core protein on pin support]	fulfilled

Please examine the following record next.
Given the entry GVYLLPRR (also: pin support) [Gly-Val-Tyr-Leu-Leu-Pro-Arg-Arg, overlapping octameric peptide of HCV core protein on pin support] , answer whether its Absorbance Units for different sera meets or surpasses 400 Absorbance Units.
not fulfilled

====

Assignment: determine reported Absorbance Units for different sera for the given sequences.
Test system: antibodies against HCV
Test: PEPSCAN analysis of overlapping octameric peptides of the HCV core protein N-terminal region with HCV-seropositive sera
Assay type: binding, human
Details: serum 65276; read at 405 nm
One number for each entry, in Absorbance Units.

Some sequences with known Absorbance Units for different sera results, for comparison:
recordSequence	Absorbance Units for different sera [Absorbance Units]
RLGVRATR (pin support) [overlapping octameric peptide of HCV core protein on pin support]	177
VGGVYLLP (pin support) [overlapping octameric peptide of HCV core protein on pin support]	132
GGVYLLPR (pin support) [overlapping octameric peptide of HCV core protein on pin support]	246
RGPRLGVR (pin support) [overlapping octameric peptide of HCV core protein on pin support]	167
LPRRGPRL (pin support) [overlapping octameric peptide of HCV core protein on pin support]	139
LLPRRGPR (pin support) [overlapping octameric peptide of HCV core protein on pin support]	98
IVGGVYLL (pin support) [overlapping octameric peptide of HCV core protein on pin support]	183
PRRGPPLG [overlapping octameric peptide of HCV core protein on pin support]	129
PRLGVRAT (pin support) [overlapping octameric peptide of HCV core protein on pin support]	155
GPRLGVRA (pin support) [overlapping octameric peptide of HCV core protein on pin support]	146

// for each sequence in input: emit Absorbance Units for different sera
1. GGQIVGGV (pin support) [overlapping octameric peptide of HCV core protein on pin support]
2. GGGQIVGG (pin support) [overlapping octameric peptide of HCV core protein on pin support]

1. 119
2. 127

====

Please go through the items and note down their Absorbance Units for different sera.
Tested on: antibodies against HCV
Experiment: PEPSCAN analysis of overlapping octameric peptides of the HCV core protein N-terminal region with HCV-seropositive sera
Type: binding, human
Conditions: serum 65234; read at 405 nm
Answers are plain numbers, in Absorbance Units.

For each of the items listed, what is its Absorbance Units for different sera?
1. VYLLPRRG (pin support) [Val-Tyr-Leu-Leu-Pro-Arg-Arg-Gly, overlapping octameric peptide of HCV core protein on pin support]
2. LLPRRGPR (pin support) [overlapping octameric peptide of HCV core protein on pin support]
3. GGGQIVGG (pin support) [overlapping octameric peptide of HCV core protein on pin support]
4. PRLGVRAT (pin support) [overlapping octameric peptide of HCV core protein on pin support]
5. QIVGGVYL (pin support) [overlapping octameric peptide of HCV core protein on pin support]
6. RLGVRATR (pin support) [overlapping octameric peptide of HCV core protein on pin support]
7. GGVYLLPR (pin support) [overlapping octameric peptide of HCV core protein on pin support]

[280, 101, 134, 88, 152, 100, 344]

Please give Absorbance Units for different sera for each item listed below.
1. PRRGPPLG [overlapping octameric peptide of HCV core protein on pin support]
2. GQIVGGVY (pin support) [overlapping octameric peptide of HCV core protein on pin support]
3. VGGVYLLP (pin support) [overlapping octameric peptide of HCV core protein on pin support]
4. LPRRGPRL (pin support) [overlapping octameric peptide of HCV core protein on pin support]
5. RGPRLGVR (pin support) [overlapping octameric peptide of HCV core protein on pin support]
6. GGQIVGGV (pin support) [overlapping octameric peptide of HCV core protein on pin support]

1. 109
2. 165
3. 235
4. 145
5. 99
6. 179
